# TARGET UNDER TEST: purified HLA-B*0702 (human)
# PROTOCOL DETAILS: competition radioimmunoassay on purified HLA, radiolabeled standard peptide
# CONDITION NOTES: remark: other sources report otherwise
READOUT KIND: pIC50
FYI, pIC50 means -log10 of a concentration in mol per litre.

// returns reported pIC50 for input DPRRLVQLL [hTRT peptide p444 (…)]
6.62

These data points were gathered from patent US20090202499A1.
